- targetDesc: TLR1/2 (Homo sapiens, UniProt O60603+Q15399)
- Sequence (Q15399 25-580 limits assumed): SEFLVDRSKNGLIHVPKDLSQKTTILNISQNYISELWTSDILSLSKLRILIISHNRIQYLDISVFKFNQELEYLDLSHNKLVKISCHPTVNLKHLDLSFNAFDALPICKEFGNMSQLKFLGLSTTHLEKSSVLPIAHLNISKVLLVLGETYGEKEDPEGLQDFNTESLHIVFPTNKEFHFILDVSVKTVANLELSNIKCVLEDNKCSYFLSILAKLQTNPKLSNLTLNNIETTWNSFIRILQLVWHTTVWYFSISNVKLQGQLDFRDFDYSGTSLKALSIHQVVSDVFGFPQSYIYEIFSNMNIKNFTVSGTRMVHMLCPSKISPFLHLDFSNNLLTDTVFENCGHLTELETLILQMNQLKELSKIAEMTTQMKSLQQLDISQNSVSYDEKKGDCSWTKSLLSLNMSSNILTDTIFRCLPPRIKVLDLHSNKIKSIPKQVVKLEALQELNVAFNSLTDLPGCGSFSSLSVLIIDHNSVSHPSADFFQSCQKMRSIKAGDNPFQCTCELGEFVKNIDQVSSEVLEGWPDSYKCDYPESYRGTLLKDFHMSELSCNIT
- Sequence (O60603 21-588 limits assumed): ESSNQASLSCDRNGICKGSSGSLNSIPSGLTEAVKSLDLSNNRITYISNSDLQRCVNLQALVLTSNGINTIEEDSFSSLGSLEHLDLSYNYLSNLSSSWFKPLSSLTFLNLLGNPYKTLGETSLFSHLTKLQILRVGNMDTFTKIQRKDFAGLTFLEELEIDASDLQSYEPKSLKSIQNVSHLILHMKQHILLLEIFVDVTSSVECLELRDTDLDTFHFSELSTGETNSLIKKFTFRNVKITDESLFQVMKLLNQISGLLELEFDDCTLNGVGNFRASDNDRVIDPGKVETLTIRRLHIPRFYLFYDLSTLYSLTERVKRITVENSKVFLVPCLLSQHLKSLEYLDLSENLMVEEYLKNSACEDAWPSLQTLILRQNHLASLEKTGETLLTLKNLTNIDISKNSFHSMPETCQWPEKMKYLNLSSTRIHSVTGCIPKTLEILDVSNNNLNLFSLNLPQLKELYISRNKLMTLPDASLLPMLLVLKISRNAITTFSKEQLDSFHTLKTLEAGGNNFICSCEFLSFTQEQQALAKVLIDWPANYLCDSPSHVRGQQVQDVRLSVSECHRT
- assayOverview: Fluorescence anisotropy competition assay with rhodamine-labeled Pam3CSK4
- conditionDetails: negative control
measuredEndpoint: IC50

Recall and state the measured IC50 for COc1cc2cccc(OC)c(=O)c2c(OC)c1OC [compound 6] .
> 40 µM

====

- targetDesc: TLR1/2 (Homo sapiens, UniProt O60603+Q15399)
- assayOverview: Fluorescence anisotropy competition assay with rhodamine-labeled Pam3CSK4
- conditionDetails: rhodamine-labeled Pam3CSK4, one-site competition model; read-out: inhibition constant (Ki), competition with Pam3CSK4 for binding to TLR1/2
measuredEndpoint: Ki
Returns: string containing the numeric result and its unit.

Assign Ki to the following record: CCCCCCOC(=O)c1cc(O)c(=O)c2c(O)c(O)c(OC)cc2c1 [compound 17]
410 nM
